TARGET_UNDER_TEST: Serine/threonine-protein kinase Nek2 (Homo sapiens);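 note: reported values are mean percent inhibition of NEK2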
Sequence (whole entry): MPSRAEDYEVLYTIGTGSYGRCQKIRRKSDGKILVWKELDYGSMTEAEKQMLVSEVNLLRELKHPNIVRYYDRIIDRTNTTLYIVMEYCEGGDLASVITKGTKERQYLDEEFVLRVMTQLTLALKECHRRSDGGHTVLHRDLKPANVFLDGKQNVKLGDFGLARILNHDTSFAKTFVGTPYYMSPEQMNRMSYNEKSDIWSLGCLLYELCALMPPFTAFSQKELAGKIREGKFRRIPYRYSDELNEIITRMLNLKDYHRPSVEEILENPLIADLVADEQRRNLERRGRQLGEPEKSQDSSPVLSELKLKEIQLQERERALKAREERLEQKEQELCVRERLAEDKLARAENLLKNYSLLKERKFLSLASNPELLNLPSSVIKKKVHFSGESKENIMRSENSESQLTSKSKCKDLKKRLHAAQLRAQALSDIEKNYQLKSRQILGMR
SETTINGS: at 1 µM
QUANTITY_NAME: inhibition
Write the numeric value and append its unit.

Task item: State its inhibition: `Cc1ccc(C(=O)NC2CCC2)cc1-c1ccc(C(=O)NCC2CC2)cc1`
Reply: 3.71%

Task item: Supply reported inhibition belonging to this molecule: `Fc1ccc(-c2nc3n(c2-c2ccncc2)CCS3)cc1`
Reply: 4.36%

Task item: Indicate its recorded inhibition; the molecule in question is `CN(C)CCOc1ccc(-c2cc(-c3ccc4c(c3)CCC4=NO)c(-c3ccncc3)o2)cc1`
Reply: 0.32%

Task item: Entry `NCc1ccc(-n2c(-c3nonc3N)nc3cnccc32)cc1` needs its inhibition filled in; supply it.
Reply: 7.8%

Task item: Answer with the recorded inhibition of `C[C@@H](Oc1cc(-n2cnc3ccc(OC4CCN(C)CC4)cc32)sc1C(N)=O)c1ccccc1Cl` only.
Reply: 39.5%

Task item: In one line, give reported inhibition of the entry `CCc1ccc(Oc2nccc(-c3c(-c4ccc(F)cc4)ncn3C3CCNCC3)n2)cc1` .
Reply: 2.36%

Task item: Supply measured inhibition of `C[C@@H](Oc1cc(-n2cnc3ccc(OCC4CCN(C)CC4)cc32)sc1C(N)=O)c1ccccc1Cl` in your reply.
Reply: 64.9%

---

TARGET_UNDER_TEST: Protein kinase C iota type (Homo sapiens)
SETTINGS: at 0.1 µM
Description: GSK_PKIS: PKC-iota mean inhibition at 0.1 uM [Nanosyn]
Hi there, I'd appreciate the recorded inhibition for every entry that follows.
Numeric only. Scale: %

Task item: Please list inhibition recorded for the molecule `COc1cc(Nc2ncc3c(C)nc(-c4cccc(C(F)(F)F)c4)n3n2)cc(OC)c1OC`
Reply: 0.74

Task item: Dear colleague, please send me the reported inhibition for `CCN(CC)Cc1ccc(Nc2nccc(-c3cnn4ncccc34)n2)cc1` when you can.
Reply: 1.27

Task item: // fetch inhibition given entry `C#Cc1cccc(Nc2ncnc3ccc(OCCCCNCCS(C)(=O)=O)cc23)c1`
Reply: 2.69

Task item: Using the record for `CCc1cccc(CC)c1/C=C/c1cncc(C(=O)NC)c1` , state its measured inhibition.
Reply: 2.1

Task item: Determine its reported inhibition: `COc1cccc(-n2cnc3c(N/N=C/c4ccncc4)ncnc32)c1`
Reply: 0.58

Task item: Using the record for `O=C(Nc1n[nH]c2cc(-c3ccccc3)ccc12)C1CC1` , state its measured inhibition.
Reply: 2.86

Task item: Give the value of inhibition reported for the following: `Cc1ccc(NC(=O)c2ccoc2)cc1-c1ccc(C(=O)NCC2CC2)cc1`
Reply: 1.53

Task item: Give the reported value of inhibition for this record: `O=C1NC(=O)C(c2cccc(Cl)c2)=C1Nc1ccc(Cl)c(C(=O)O)c1`
Reply: 0.11

Task item: Check the records and state inhibition for `NC(=O)c1cc(-c2ccncc2)cc(-c2ccccc2)c1N`
Reply: 2.83

Task item: # return recorded inhibition for input `COc1cc2ncn(-c3cc(OCc4ccccc4C(F)(F)F)c(C(C)=O)s3)c2cc1OC`
Reply: 0.95

Task item: Tell us which inhibition value is on record for `O=C(Nc1n[nH]c2cc(-c3cc(F)ccc3F)ccc12)C1CC1`
Reply: -0.39

Task item: Entry `O=C(Nc1ccc(Oc2ccc3[nH]c(NC(=O)c4ccccc4)nc3c2)cc1)Nc1cc(C(F)(F)F)ccc1F` needs its inhibition filled in; supply it.
Reply: 1.82

Task item: Check the records and state inhibition for `NS(=O)(=O)c1ccc(Nc2cc(-c3ccc(O)c(F)c3)n[nH]2)cc1`
Reply: -0.61

Task item: Using the record for `COc1ccc(-c2ccc3c(NC(=O)C4CC4)n[nH]c3n2)cc1` , state its measured inhibition.
Reply: 0.3

Task item: Please indicate inhibition recorded for `Fc1ccc(-c2nc3n(c2-c2ccncc2)CCS3)cc1`
Reply: 2.39

Task item: Give the measured inhibition for `CN(C)CCCNc1nccc(-c2c(-c3ccc(F)cc3)nn3cc(C(F)(F)F)ccc23)n1`
Reply: 0.91

Task item: Supply reported inhibition belonging to this molecule: `c1ccc(-c2n[nH]cc2-c2ccnc(-c3ccc(OCCN4CCOCC4)cc3)c2)nc1`
Reply: 3.68

Task item: Complete the entry with inhibition for Nc1nccc(-c2c(-c3ccc(F)cc3)ncn2C2CCC(O)CC2)n1 (stereo unspecified)
Reply: 1.25

Task item: Give recorded inhibition. `CCS(=O)(=O)c1ccc(OC)c(Nc2ncc(-c3cccc(-c4ccccc4F)c3)o2)c1`
Reply: 1.05

Task item: Identify the reported inhibition for the following entry. `Fc1ccc(-c2ncn(C3CCNCC3)c2-c2ccnc(Oc3ccc(Oc4ccccc4)cc3)n2)cc1`
Reply: 1.22

Task item: Tell me its inhibition given `CNC(=O)c1cncc(/C=C/c2c(C)cccc2C)c1` as the entry.
Reply: -1.41

---

Assign inhibition to each entry below.
TARGET_UNDER_TEST: Tyrosine-protein kinase JAK1 (Homo sapiens)
SETTINGS: at 0.1 µM
Description: GSK_PKIS: JAK1 mean inhibition at 0.1 uM [Nanosyn]

Task item: Input `c1ccc(Oc2ccc(Nc3ncc(-c4ccccc4)o3)cc2)cc1` , output reported inhibition.
Reply: 0.76%

Task item: Indicate its recorded inhibition; the compound in question is `COc1ccc2cc(-c3c(-c4ccncc4)nc(-c4ccc(S(C)(=O)=O)cc4C)n3C)ccc2c1`
Reply: 5.05%

Task item: Supply recorded inhibition for `COc1cc2ncn(-c3cc(OCCc4ccccc4)c(C(N)=O)s3)c2cc1OC` here.
Reply: 1.72%

Task item: # return recorded inhibition for entry `C#Cc1cccc(Nc2ncnc3ccc(OCCCCNCCS(C)(=O)=O)cc23)c1`
Reply: 0.29%

Task item: Provide one value: measured inhibition of `Cc1ccc(C(=O)NC(C)C)cc1-c1ccc(C(=O)NCC2CC2)cc1`
Reply: -3.33%

Task item: Return the recorded inhibition value; entry: `COc1ccc(C2=C(N3CCc4ccccc43)C(=O)NC2=O)cc1`
Reply: 3.92%

Task item: State its inhibition for this compound: `O=C(Nc1n[nH]c2cc(-c3ccccc3)ccc12)C1CC1`
Reply: 2.85%

Task item: Quickly give me recorded inhibition for `CN(c1ccc(NC(=O)Nc2c(Cl)cccc2Cl)cc1)c1ccnc(Nc2cccc(CS(C)(=O)=O)c2)n1`
Reply: 8.34%

Task item: Provide only the value of recorded inhibition for `Clc1ccc(CNc2nccc(-c3cnn4ncccc34)n2)cc1`
Reply: -0.37%

Task item: Identify measured inhibition associated with `NCc1ccc(-n2c(-c3nonc3N)nc3cnccc32)cc1`
Reply: 4.99%

Task item: Fill in reported inhibition for this entry: `COc1cc2ncn(-c3cc(OCc4ccccc4C(F)(F)F)c(C(C)=O)s3)c2cc1OC`
Reply: 2.15%

Task item: // Input: `Cc1nnc(-c2ccc(C)c(-c3ccc(C(=O)NCc4ccc(Cl)cc4)cc3)c2)o1` . Output its inhibition only.
Reply: 4.61%

Task item: Item `CS(=O)(=O)CCNCc1ccc(-c2ccc3ncnc(Nc4ccc(OCc5ccccc5)c(Br)c4)c3c2)o1` : provide inhibition
Reply: 3.52%

Task item: Answer with the recorded inhibition for the compound listed here: `Fc1ccc(-c2c(-c3ccncc3)nc3n2CCS3)cc1`
Reply: 1.7%

Task item: Supply inhibition value. Item: `COc1cc(C)c(N(C)C(=O)CN(C)C)cc1Nc1nc(Nc2cccc(F)c2C(N)=O)c2cc[nH]c2n1`
Reply: 3.43%

Task item: Using the record for `Fc1ccc(-c2ncn(C3CCNCC3)c2-c2ccnc(Oc3ccc(F)c(F)c3)n2)cc1` , state its measured inhibition.
Reply: 3.04%

Task item: Quote inhibition reported for `CCC(=O)Nc1ccc(C)c(-c2ccc(C(=O)NCC3CC3)cc2)c1` please.
Reply: 2.44%

Task item: Given `COC(=O)Nc1nc2ccc(Sc3ccc(NC(=O)Nc4cc(C(F)(F)F)ccc4F)cc3)cc2[nH]1` , respond with its inhibition.
Reply: 0.69%

Task item: Identify measured inhibition corresponding to `COc1cccc(-n2cnc3c(N/N=C/c4ccncc4)ncnc32)c1`
Reply: 4.44%

Task item: Quick one: give measured inhibition for `NS(=O)(=O)c1ccc(N/N=C2\C(=O)Nc3ccc(C(=O)NCCCn4ccnc4)cc32)cc1`
Reply: 5.06%

---

Kindly state inhibition for each of the entries shown.
TARGET_UNDER_TEST: Tyrosine-protein kinase CSK (Homo sapiens);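 note: each value is an averaged inhibition reading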
SETTINGS: at 1 µM
State just the number; it will be interpreted in %.

Task item: In one line, give reported inhibition of the entry `Fc1ccc(-c2ncn(C3CCNCC3)c2-c2ccnc(Oc3ccc(Oc4ccccc4)cc3)n2)cc1` .
Reply: 3.28

Task item: Note inhibition for the molecule shown: `COc1ccc(-c2ccc3c(NC(=O)C4CC4)n[nH]c3n2)cc1`
Reply: 4.87

Task item: # return recorded inhibition for input `Cc1ccc(NC(=O)c2ccoc2)cc1-c1ccc(C(=O)NCC2CC2)cc1`
Reply: 0.18

Task item: Check the records and state inhibition for `COc1cc(Nc2ncc(-c3ccccc3)o2)cc(OC)c1OC`
Reply: -0.86

Task item: Answer with the recorded inhibition for the molecule listed here: `NC(=O)c1cc(-c2ccncc2)cc(-c2ccccc2)c1N`
Reply: 16.1

Task item: Please give the documented inhibition of `O=C(Nc1n[nH]c2nc(-c3ccc(O)cc3)c(Br)cc12)C1CC1`
Reply: 10.9

Task item: Give me measured inhibition, please, for this molecule: `O=C1Nc2ccccc2/C1=C/Nc1ccc(-n2cncn2)cc1`
Reply: 7.33

Task item: Read the entry `CN(C)c1ccc2c(c1)/C(=C/Nc1ccc(S(N)(=O)=O)cc1)C(=O)N2` and write its reported inhibition.
Reply: 0.76

Task item: Check the records and state inhibition for `CCC(=O)Nc1ccc(C)c(-c2ccc(C(=O)NCC3CC3)cc2)c1`
Reply: 4.34

Task item: Give recorded inhibition. `C[C@@H](Oc1cc(-n2cnc3ccc(OC4CCN(C)CC4)cc32)sc1C(N)=O)c1ccccc1Cl`
Reply: 5.07

The measured values listed here are drawn from ChEMBL document CHEMBL1961873.
